test: Ex vivo biodistribution in mice with MM1S tumor xenografts; details: both sexes, NSG, mouse, heart, 80 µCi, total radioactivity, 5 min p.i.; MM1S xenograft mice; read-out: uptake in heart
readout-type: tissue uptake at 5 min (%ID/g)
# output: bare number, implied unit %ID/g

What does the data say about its tissue uptake at 5 min? Entry: CC[C@H](C)[C@@H]1NC(=O)[C@@H]2CCCN2C(=O)[C@H](Cc2ccccc2)NC(=O)[C@H](CC(=O)O)NC(=O)[C@H](C)NC(=O)[C@@H]2CSCc3cc(cc(c3)CSC[C@H](NC(=O)[C@H](C)NC(=O)CCOCCOCCOCCNC(=O)CN3CCN(CC(=O)O)CCN(CC(=O)O)CC3)C(=O)N[C@@H](C(C)C)C(=O)N3CCC[C@H]3C(=O)N2)CSC[C@@H](C(N)=O)NC(=O)[C@H](Cc2ccc(O)cc2)NC(=O)[C@H](Cc2c[nH]c3ccccc23)NC1=O [[^68Ga]Ga‐AJ206, metal not drawn]
6.38
